Kindly supply the reported pIC50 values for the records listed here.
System: K562
Assay: CCK-8 proliferation assay, K562
Assay type: cell-based
Settings: Homo sapiens, CCK-8 kit assay, triplicates, 72 h, read-out: Anti-proliferation activity against cancer cells (IC50), K562
pIC50 (log units): -log10 of the concentration in mol/L.

Exam item: Return reported pIC50; argument: O=C(c1cnn(-c2ccccc2)c1)c1ccccc1O
Marked response: 4.55

Exam item: Return reported pIC50; argument: O=C(c1cnn(-c2ccc(Cl)cc2)c1)c1ccccc1O
Marked response: 4.35

Exam item: Return reported pIC50; argument: Cc1cc(O)c(C(=O)c2cnn(-c3ccc(C(=O)O)cc3)c2)cc1Cl
Marked response: 4.55

Exam item: Return reported pIC50; argument: Cc1ccccc1-n1cc(C(=O)c2ccccc2O)cn1
Marked response: 4.48

Exam item: Return reported pIC50; argument: Cc1ccc(-n2cc(C(=O)c3ccccc3O)cn2)cc1
Marked response: 4.52

Exam item: Return reported pIC50; argument: COc1ccc(-n2cc(C(=O)c3ccccc3O)cn2)cc1
Marked response: 4.41

###

System: K562
Test: CCK-8 proliferation assay, K562
Format: cell-based
Settings: Homo sapiens, CCK-8 kit assay, triplicates, 72 h, read-out: Anti-proliferation activity against cancer cells (IC50), K562
Method: The JAR, K562, HCT116, and MOLM13 cells were seeded in 96-well plates (3000 cells/well). After being cultured overnight, compounds were added together with the DMSO treatment (0.1%) as a control. After 72 h, CCK-8 solution (Vazyme, A311) was added, and the cells were incubated at 37 °C for 4 h. The absorbance was measured at 450 nm using a plate reader (TECAN Spark).
Kindly supply the reported IC50 values for the records listed here.
Response body: numeric value in µM, unit text excluded.

Exam item: Item: O=C(O)c1ccc(-n2cc(C(=O)c3ccc(Br)cc3O)cn2)cc1 [CK-70] Test system: K562 Read-out: IC50 Value: ?
Marked response: 45.5

Exam item: Item: COc1ccc(O)c(C(=O)c2cnn(-c3ccc(C(=O)O)cc3)c2)c1 [CK-66] Test system: K562 Read-out: IC50 Value: ?
Marked response: 38.8

Exam item: Item: N#C/C(=C\c1ccc(-c2cccc(O)c2)s1)C(N)=O [DC-Y13–27, reference compound] Test system: K562 Read-out: IC50 Value: ?
Marked response: 24.5

Exam item: Item: O=C(c1cnn(-c2ccc(OC(F)(F)F)cc2)c1)c1ccccc1O [CK-39] Test system: K562 Read-out: IC50 Value: ?
Marked response: 25.6

###

Test: MTT cytotoxicity assay, K562
Type: cell-based
Details: human, K562 cells, triplicates, read-out: Cytotoxicity against cancer cells (IC50), K562
Description: JAR, K562, and HCT116 cells were seeded in 96-well plates (3500 cells/well) and incubated for 8 h. The medium with different concentrations of compounds (100, 33.3, 11.1, 3.7, 1.2, and 0.4 μM) was added to the 96-well plates. Data were normalized to the medium with 0.1% DMSO. […] After the medium was discarded, DMSO (150 μL) was added per well, and the absorbance was measured at 492 nm by a plate reader (TECAN Spark).
ENDPOINT_NAME: IC50 at 72 h (µM)
Response body: numeric value in µM, unit text excluded.

Exam item: Return reported IC50 at 72 h; argument: N#Cc1ccc(-n2cc(C(=O)c3ccccc3O)cn2)cc1 [CK-38]
Marked response: 43.2

Exam item: Return reported IC50 at 72 h; argument: O=C(c1cnn(-c2ccccc2C(=O)O)c1)c1ccccc1O [CK-25]
Marked response: 44.3

Exam item: Return reported IC50 at 72 h; argument: NS(=O)(=O)c1ccc(-n2cc(C(=O)c3ccccc3O)cn2)cc1 [CK-49]
Marked response: 20.1

Exam item: Return reported IC50 at 72 h; argument: O=C(O)c1ccc(-n2cc(C(=O)c3cccc(Cl)c3O)cn2)cc1 [CK-96]
Marked response: 25.4

Exam item: Return reported IC50 at 72 h; argument: Cc1ccccc1-n1cc(C(=O)c2ccccc2O)cn1 [CK-45]
Marked response: 21.9

Exam item: Return reported IC50 at 72 h; argument: O=C(O)c1ccc(-n2cc(C(=O)c3c(O)ccc4ccccc34)cn2)cc1 [CK-75]
Marked response: 29.7

Exam item: Return reported IC50 at 72 h; argument: CS(=O)(=O)c1ccc(-n2cc(C(=O)c3ccccc3O)cn2)cc1 [CK-50]
Marked response: 48.2

Exam item: Return reported IC50 at 72 h; argument: O=C(O)c1ccc(-n2cc(C(=O)c3ccc(Br)cc3O)cn2)cc1 [CK-70]
Marked response: 42.1

###

Assay: MTT cytotoxicity assay, JAR
Format: cell-based
Conditions: human, JAR cells, triplicates, read-out: Cytotoxicity against cancer cells (IC50), JAR
Kindly supply the reported IC50 at 72 h values for the records listed here.
Response body: numeric value in µM, unit text excluded.

Exam item: Return reported IC50 at 72 h; argument: O=C(O)c1ccc(-n2cc(C(=O)c3c(O)ccc4ccccc34)cn2)cc1 [CK-75]
Marked response: 47.5

Exam item: Return reported IC50 at 72 h; argument: Cc1ccccc1-n1cc(C(=O)c2ccccc2O)cn1 [CK-45]
Marked response: 43.2

Exam item: Return reported IC50 at 72 h; argument: O=C(O)c1ccc(-n2cc(C(=O)c3cc(Br)ccc3O)cn2)cc1 [CK-60]
Marked response: 37.1

Exam item: Return reported IC50 at 72 h; argument: O=C(O)c1ccc(-n2cc(C(=O)c3cc([N+](=O)[O-])ccc3O)cn2)cc1 [CK-62]
Marked response: 42.6

Exam item: Return reported IC50 at 72 h; argument: O=C(c1cnn(-c2ccc(F)cc2)c1)c1ccccc1O [CK-26]
Marked response: 47.2

###

Kindly supply the reported IC50 at 72 h values for the records listed here.
Test: MTT cytotoxicity assay, JAR
Assay type: cell-based
Details: human, JAR cells, triplicates, read-out: Cytotoxicity against cancer cells (IC50), JAR

Exam item: Return reported IC50 at 72 h; argument: NS(=O)(=O)c1ccc(-n2cc(C(=O)c3ccccc3O)cn2)cc1
Marked response: 34.6 µM

Exam item: Return reported IC50 at 72 h; argument: O=C(c1cnn(-c2ccc(Cl)cc2)c1)c1ccccc1O
Marked response: > 50 µM

Exam item: Return reported IC50 at 72 h; argument: COc1ccc(-n2cc(C(=O)c3ccccc3O)cn2)cn1
Marked response: > 50 µM

Exam item: Return reported IC50 at 72 h; argument: O=C(c1cnn(-c2ccccc2)c1)c1ccccc1O
Marked response: 48.1 µM

Exam item: Return reported IC50 at 72 h; argument: CS(=O)(=O)c1ccc(-n2cc(C(=O)c3ccccc3O)cn2)cc1
Marked response: > 50 µM

Exam item: Return reported IC50 at 72 h; argument: O=C(O)c1ccc(-n2cc(C(=O)c3cc(Cl)cc(Cl)c3O)cn2)cc1
Marked response: > 50 µM

Exam item: Return reported IC50 at 72 h; argument: O=C(c1cnn(-c2ccccc2F)c1)c1ccccc1O
Marked response: > 50 µM

Exam item: Return reported IC50 at 72 h; argument: COc1cccc(O)c1C(=O)c1cnn(-c2ccc(C(=O)O)cc2)c1
Marked response: > 50 µM

Exam item: Return reported IC50 at 72 h; argument: O=C(O)c1ccc(-n2cc(C(=O)c3cc(Cl)ccc3O)cn2)cc1
Marked response: > 50 µM

Exam item: Return reported IC50 at 72 h; argument: COc1ccc(-n2cc(C(=O)c3ccccc3O)cn2)cc1
Marked response: 44.6 µM

Exam item: Return reported IC50 at 72 h; argument: Cc1ccc(C(=O)c2cnn(-c3ccc(C(=O)O)cc3)c2)c(O)c1
Marked response: > 50 µM

Exam item: Return reported IC50 at 72 h; argument: O=C(c1cnn(-c2ccccc2C(=O)O)c1)c1ccccc1O
Marked response: > 50 µM

Exam item: Return reported IC50 at 72 h; argument: O=C(O)c1ccc(-n2cc(C(=O)c3ccc(Cl)cc3O)cn2)cc1
Marked response: 25 µM

Exam item: Return reported IC50 at 72 h; argument: COc1ccc(O)c(C(=O)c2cnn(-c3ccc(C(=O)O)cc3)c2)c1
Marked response: > 50 µM

Exam item: Return reported IC50 at 72 h; argument: O=C(c1cnn(-c2ccc(Br)cc2)c1)c1ccccc1O
Marked response: > 50 µM

Exam item: Return reported IC50 at 72 h; argument: O=C(c1cnn(-c2ccc(OC(F)(F)F)cc2)c1)c1ccccc1O
Marked response: 46.2 µM

###

Target: YTHDF2 (residues 383–553) (Homo sapiens, UniProt Q9Y5A9)
Construct: A YTHDF2 YTH domain construct (residues 383–553) was subcloned to a pOPIN plasmid; made in house; host or cells: Escherichia coli BL21(DE3)
Sequence (Q9Y5A9 383-553): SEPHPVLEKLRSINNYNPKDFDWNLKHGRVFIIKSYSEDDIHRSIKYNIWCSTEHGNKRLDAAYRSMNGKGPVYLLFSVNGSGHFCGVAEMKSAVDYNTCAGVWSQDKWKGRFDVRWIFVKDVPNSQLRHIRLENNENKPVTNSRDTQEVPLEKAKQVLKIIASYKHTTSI
Assay: Fluorescence polarization (FP) assay, YTHDF2–m6A RNA interaction
Format: binding
Settings: 100 μM compound; YTHDF2 (residues 383–553, 20 nM), FAM-labeled m6A RNA probe 5 nM; average ± SD
ENDPOINT_NAME: inhibition at 100 µM (%)
Response body: numeric value in %, unit text excluded.

Exam item: Return reported inhibition at 100 µM; argument: CC(C)c1ccc(O)c(C(=O)c2cnn(-c3ccc(C(=O)O)cc3)c2)c1 [CK-55]
Marked response: 41.8

Exam item: Return reported inhibition at 100 µM; argument: O=C(c1cnn(-c2ccccc2)c1)c1ccccc1O [CK-22]
Marked response: -3.7

Exam item: Return reported inhibition at 100 µM; argument: O=C(O)c1ccc(-n2cc(C(=O)c3cc(F)cc(F)c3O)cn2)cc1 [CK-86]
Marked response: 54.6

Exam item: Return reported inhibition at 100 µM; argument: COc1ccc(O)c(C(=O)c2cnn(-c3ccc(C(=O)O)cc3)c2)c1 [CK-66]
Marked response: 63.2

Exam item: Return reported inhibition at 100 µM; argument: O=C(c1cnn(-c2ccc(Cl)cc2)c1)c1ccccc1O [CK-27]
Marked response: -5.2

Exam item: Return reported inhibition at 100 µM; argument: O=C(O)c1ccc(-n2cc(C(=O)c3ccc(Cl)cc3O)cn2)cc1 [CK-88]
Marked response: 28.8

Exam item: Return reported inhibition at 100 µM; argument: O=C(c1cnn(-c2ccccc2F)c1)c1ccccc1O [CK-43]
Marked response: 24.4

Exam item: Return reported inhibition at 100 µM; argument: O=C(O)c1ccc(-n2cc(C(=O)c3ccc(F)cc3O)cn2)cc1 [CK-89]
Marked response: 44.4

Exam item: Return reported inhibition at 100 µM; argument: O=C(O)c1ccc(-n2cc(C(=O)c3cc([N+](=O)[O-])ccc3O)cn2)cc1 [CK-62]
Marked response: 34.4

Exam item: Return reported inhibition at 100 µM; argument: Cc1ccc(-n2cc(C(=O)c3ccccc3O)cn2)cc1 [CK-51]
Marked response: 4.1

Exam item: Return reported inhibition at 100 µM; argument: COc1ccc(-n2cc(C(=O)c3ccccc3O)cn2)cn1 [CK-47]
Marked response: 25.5

Exam item: Return reported inhibition at 100 µM; argument: Cc1ccccc1-n1cc(C(=O)c2ccccc2O)cn1 [CK-45]
Marked response: 22.1

Exam item: Return reported inhibition at 100 µM; argument: O=C(O)c1ccc(-n2cc(C(=O)c3cccc(Cl)c3O)cn2)cc1 [CK-96]
Marked response: 52.2

Exam item: Return reported inhibition at 100 µM; argument: O=C(O)c1ccc(-n2cc(C(=O)c3cc(Cl)ccc3O)cn2)cc1 [CK-67]
Marked response: 41.1

Exam item: Return reported inhibition at 100 µM; argument: O=C(O)c1ccc(-n2cc(C(=O)c3cc(F)ccc3O)cn2)cc1 [CK-56]
Marked response: 37.4

Exam item: Return reported inhibition at 100 µM; argument: O=C(c1cnn(-c2ccc(F)cc2)c1)c1ccccc1O [CK-26]
Marked response: 10.7

Exam item: Return reported inhibition at 100 µM; argument: Cc1ccc(C(=O)c2cnn(-c3ccc(C(=O)O)cc3)c2)c(O)c1 [CK-73]
Marked response: 26.3
